tested on: Splenocyte; test: Induction of IFN in C3H/HeJ mouse splenocytes at 100 nM; format: functional
Category scheme (Activity): band 1 = under 4 IU/ml, band 2 = from 4 IU/ml up to 8 IU/ml, band 3 = 8 IU/ml and over

# smiles_code, label_value
data = [
    ("COCCNc1nc(N)c2nc(O)n(Cc3ccc(F)cc3)c2n1", "band 3"),
    ("CCCCNc1nc(N)c2nc(O)n(Cc3cccnc3C)c2n1", "band 1"),
    ("CCCCNc1nc(N)c2nc(O)n(Cc3ccc(N(C)C)nc3)c2n1", "band 1"),
    ("CCCCNc1nc(N)c2nc(O)n(Cc3ccc(OCc4ccccc4)cc3)c2n1", "band 3"),
    ("CCCCNc1nc(N)c2nc(O)n(Cc3ccc(F)c(F)c3)c2n1", "band 2"),
    ("CCCCNc1nc(N)c2nc(O)n(Cc3cncc(C)c3)c2n1", "band 2"),
    ("CCCCNc1nc(N)c2nc(O)n(Cc3ccc(Cl)c(Cl)c3)c2n1", "band 3"),
    ("CCCCNc1nc(N)c2nc(O)n(Cc3cnccn3)c2n1", "band 2"),
    ("CCCCNc1nc(N)c2nc(O)n(Cc3ccc(-c4ccccc4)cc3)c2n1", "band 1"),
    ("Nc1nc(NCc2ccncc2)nc2c1nc(O)n2Cc1ccccc1", "band 3"),
    ("CCCCNc1nc(N)c2nc(O)n(Cc3cccc(Cl)c3)c2n1", "band 2"),
]

====

Each record here notes measured log10 of Activity.
tested on: Splenocyte; test: Induction of IFN in C3H/HeJ mouse splenocytes at 10 nM; type: functional
outcome_measure: log10 of Activity (log10 of the value in IU/ml)

# compound, log10 of Activity
rows = [
    ("CCCCNc1nc(N)c2nc(O)n(Cc3ccc(Cl)s3)c2n1", 0.95),
    ("Nc1nc(NCc2ccncc2)nc2c1nc(O)n2Cc1ccccc1", 0.34),
    ("CCCCNc1nc(N)c2nc(O)n(Cc3ccc(F)cc3)c2n1", 1.11),
    ("CCOCc1nc2c(N)nc3ccccc3c2n1CC(C)(C)O [RESIQUIMOD]", 1.04),
    ("CCCCNc1nc(N)c2nc(O)n(Cc3ccc(Cl)nc3)c2n1", 0.83),
    ("CCCCNc1nc(N)c2nc(O)n(Cc3ccc(C(F)(F)F)cc3)c2n1", 0.46),
    ("Nc1nc(NCc2ccccc2)nc2c1nc(O)n2Cc1ccccc1", 1.65),
    ("CCCCNc1nc(N)c2nc(O)n(Cc3ccc(Cl)c(Cl)c3)c2n1", -0.10),
    ("Nc1nc(NCc2ccncc2)nc2c1nc(O)n2Cc1ccc(F)cc1", 1.05),
]

====

Property: Activity; scope: individual molecules
test system: Splenocyte; assay: Induction of IFN in C3H/HeJ mouse splenocytes at 3 nM; type: functional
outcome_measure: Activity

# smiles_code, observed_measurement
records = [
    ("CCCCNc1nc(N)c2nc(O)n(Cc3cccnc3)c2n1", "1.6 IU/ml"),
    ("CCCCNc1nc(N)c2nc(O)n(Cc3ccc(Cl)s3)c2n1", "<0.5 IU/ml"),
    ("CCCCNc1nc(N)c2nc(O)n(Cc3ccc(Cl)cc3)c2n1", "<0.5 IU/ml"),
    ("CCCCNc1nc(N)c2nc(O)n(Cc3cccc4ccccc34)c2n1", "<0.5 IU/ml"),
    ("CCCCNc1nc(N)c2nc(O)n(Cc3cccnc3C)c2n1", "<0.5 IU/ml"),
    ("CCCCNc1nc(N)c2nc(O)n(Cc3ccc(OC)nc3)c2n1", "8.2 IU/ml"),
]

====

test system: Mustela putorius furo; assay: Emetic activities in ferret at 0.3 mg/kg, po; format: organism-based; parameters: dose 0.3 mg/kg, route oral; conditions: in vivo

# smiles_code, target_desc, Activity
records = [
    ("CCCCNc1nc(N)c2nc(O)n(Cc3ccc(Cl)nc3)c2n1", "Mustela putorius furo", "Not Active"),
    ("CCCCNc1nc(N)c2nc(O)n(Cc3ccc(C)nc3)c2n1", "Mustela putorius furo", "Not Active"),
    ("CCCCNc1nc(N)c2nc(O)n(Cc3ccc(OC)nc3)c2n1", "Mustela putorius furo", "Not Active"),
]

====

test system: Mustela putorius furo; test: Emetic activities in ferret at 3 mg/kg, po; assay type: organism-based; parameters: dose 3 mg/kg, route oral; conditions: in vivo
outcome_measure: Activity

# smiles_code, observed_measurement
data = [
    ("CCCCNc1nc(N)c2nc(O)n(Cc3ccc(OC)nc3)c2n1", "Not Active"),
    ("CCCCNc1nc(N)c2nc(O)n(Cc3ccc(Cl)nc3)c2n1", "Not Active"),
    ("CCCCNc1nc(N)c2nc(O)n(Cc3ccc(C)nc3)c2n1", "Not Active"),
]

====

system: Mus musculus; test: Induction of IFN in BALB/c mice at 0.1 mg/kg, po; assay type: functional
outcome_measure: log10 of Activity (log10 of the value in IU/ml)

# smiles_code, log10 of Activity
measured = [
    ("CCCCNc1nc(N)c2nc(O)n(Cc3cccnc3)c2n1", 1.88),
    ("Nc1nc(NCc2ccncc2)nc2c1nc(O)n2Cc1ccc(F)cc1", 1.28),
    ("COCCNc1nc(N)c2nc(O)n(Cc3ccccc3)c2n1", 1.64),
    ("CCCCNc1nc(N)c2nc(O)n(Cc3ccc(C(F)(F)F)cc3)c2n1", 0.90),
    ("CCCCNc1nc(N)c2nc(O)n(Cc3ccc(OC)cc3)c2n1", 1.86),
    ("CCCCNc1nc(N)c2nc(O)n(Cc3ccc([N+](=O)[O-])cc3)c2n1", 1.79),
    ("CCCCNc1nc(N)c2nc(O)n(Cc3ccc(C)cc3)c2n1", 1.45),
    ("CCOCc1nc2c(N)nc3ccccc3c2n1CC(C)(C)O", 3.07),
]

====

test system: Mus musculus; assay: Induction of IFN in BALB/c mice at 0.1 mg/kg, po; assay type: functional
molecules and their reported log10(Activity)
outcome_measure: log10(Activity) (log10 of the value in IU/ml)

# smiles_code, observed_measurement
records = [
    ("COCCNc1nc(N)c2nc(O)n(Cc3ccc(F)cc3)c2n1", 1.73),
    ("Nc1nc(NCc2ccccc2)nc2c1nc(O)n2Cc1ccccc1", 2.31),
    ("CCCCNc1nc(N)c2nc(O)n(Cc3ccc(Cl)cc3)c2n1", 0.85),
    ("CCCCNc1nc(N)c2nc(O)n(Cc3ccncc3)c2n1", 1.32),
    ("CCCCNc1nc(N)c2nc(O)n(Cc3ccccc3)c2n1", 2.05),
    ("CCCCNc1nc(N)c2nc(O)n(Cc3ccc(F)c(F)c3)c2n1", 1.54),
    ("CCCCNc1nc(N)c2nc(O)n(Cc3ccc(C)nc3)c2n1", 2.59),
    ("CCCCNc1nc(N)c2nc(O)n(Cc3ccc(Cl)nc3)c2n1", 2.91),
]

====

system: Splenocyte; experiment: Induction of IFN in C3H/HeJ mouse splenocytes at 100 nM; type: functional
Activity listing for selected compounds.

# smiles_code, Activity
data = [
    ("CCCCNc1nc(N)c2nc(O)n(Cc3ccc(Cl)nc3)c2n1", "1.5 IU/ml"),
    ("CCCCNc1nc(N)c2nc(O)n(CC(C)(C)O)c2n1", "0.6 IU/ml"),
    ("Nc1nc(NCc2ccccc2)nc2c1nc(O)n2Cc1ccccc1", "80.4 IU/ml"),
    ("CCCCNc1nc(N)c2nc(O)n(Cc3ccc(C(C)(C)C)cc3)c2n1", "13 IU/ml"),
    ("Nc1nc(NCc2ccccc2)nc2c1nc(O)n2Cc1ccc(F)cc1", "4.5 IU/ml"),
    ("CCCCNc1nc(N)c2nc(O)n(Cc3ccc(C(F)(F)F)cc3)c2n1", "15.2 IU/ml"),
    ("CCCCNc1nc(N)c2nc(O)n(CCc3ccccc3)c2n1", "<0.5 IU/ml"),
    ("Nc1nc(NCc2ccncc2)nc2c1nc(O)n2Cc1ccc(F)cc1", "5.2 IU/ml"),
    ("CCCCNc1nc(N)c2nc(O)n(Cc3ccc(F)cc3)c2n1", "4.2 IU/ml"),
    ("CCCCNc1nc(N)c2nc(O)n(Cc3ccc([N+](=O)[O-])cc3)c2n1", "2 IU/ml"),
    ("CCCCNc1nc(N)c2nc(O)n(Cc3ccc(C)nc3)c2n1", "1.4 IU/ml"),
    ("CCCCNc1nc(N)c2nc(O)n(Cc3cccnc3)c2n1", "8.1 IU/ml"),
    ("CCCCNc1nc(N)c2nc(O)n(Cc3ccc4ccccc4c3)c2n1", "17.4 IU/ml"),
    ("CCCCNc1nc(N)c2nc(O)n(Cc3ccc(Cl)s3)c2n1", "7.2 IU/ml"),
    ("CCCCNc1nc(N)c2nc(O)n(Cc3ccc(Cl)cc3)c2n1", "7.4 IU/ml"),
    ("CCCCNc1nc(N)c2nc(O)n(Cc3cccnc3Cl)c2n1", "5 IU/ml"),
    ("CCCCNc1nc(N)c2nc(O)n(Cc3cnccc3Cl)c2n1", "4.2 IU/ml"),
    ("CCCCNc1nc(N)c2nc(O)n(Cc3ccc(CCCC)cc3)c2n1", "11 IU/ml"),
    ("CCCCNc1nc(N)c2nc(O)n(Cc3ccccn3)c2n1", "9.1 IU/ml"),
    ("CCCCNc1nc(N)c2nc(O)n(CC(C)C)c2n1", "4.1 IU/ml"),
    ("CCOCc1nc2c(N)nc3ccccc3c2n1CC(C)(C)O", "4 IU/ml"),
    ("CCCCNc1nc(N)c2nc(O)n(Cc3ccc(Cl)nc3Cl)c2n1", "5.7 IU/ml"),
    ("CCCCNc1nc(N)c2nc(O)n(Cc3ccccc3)c2n1", "3.4 IU/ml"),
    ("CCCCNc1nc(N)c2nc(O)n(Cc3ccncc3)c2n1", "4.3 IU/ml"),
    ("CCCCNc1nc(N)c2nc(O)n(Cc3ccc(OC)nc3)c2n1", "1 IU/ml"),
    ("CCCCNc1nc(N)c2nc(O)n(Cc3ccc(OC)cc3)c2n1", "2 IU/ml"),
    ("CCCCNc1nc(N)c2nc(O)n(Cc3ccc(C)cc3)c2n1", "2 IU/ml"),
    ("CCCCNc1nc(N)c2nc(O)n(Cc3ccccc3Cl)c2n1", "4.5 IU/ml"),
    ("CCCCNc1nc(N)c2nc(O)n(Cc3ccccc3C)c2n1", "3.6 IU/ml"),
]
